Origin of measurements: patent US20120213794A1

target: T1, human PCSK9 (human, UniProt Q8NBP7 31-692); test: SPR (Biacore), IgG captured by anti-human IgG, PCSK9 injected at 3.75-60 nM
T1 construct: Secreted PCSK9 is autocleaved into prodomain and mature chain, and a His-tag is named for the HEK293 constructs; also called hPCSK9; proprotein convertase subtilisin-kexin type 9
T1 sequence (Q8NBP7 31-692 limits assumed): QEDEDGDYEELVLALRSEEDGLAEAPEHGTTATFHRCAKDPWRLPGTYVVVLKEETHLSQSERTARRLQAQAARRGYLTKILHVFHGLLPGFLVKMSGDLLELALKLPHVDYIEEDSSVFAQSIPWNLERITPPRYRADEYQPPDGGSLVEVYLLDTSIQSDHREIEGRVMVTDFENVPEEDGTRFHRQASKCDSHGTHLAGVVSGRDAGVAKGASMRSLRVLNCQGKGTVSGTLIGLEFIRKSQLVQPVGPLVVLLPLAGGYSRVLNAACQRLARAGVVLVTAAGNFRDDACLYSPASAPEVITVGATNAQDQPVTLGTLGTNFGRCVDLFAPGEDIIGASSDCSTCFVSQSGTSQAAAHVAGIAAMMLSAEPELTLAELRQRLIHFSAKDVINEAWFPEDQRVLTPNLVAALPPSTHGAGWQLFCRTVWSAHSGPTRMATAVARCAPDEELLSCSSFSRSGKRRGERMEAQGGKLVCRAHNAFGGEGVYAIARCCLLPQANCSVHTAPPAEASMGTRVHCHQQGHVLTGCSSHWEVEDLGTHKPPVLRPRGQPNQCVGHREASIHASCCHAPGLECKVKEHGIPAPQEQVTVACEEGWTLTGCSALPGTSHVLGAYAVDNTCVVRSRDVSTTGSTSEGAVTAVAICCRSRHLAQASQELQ
Kindly state pKd for each of the entries shown.
// pKd is dimensionless: -log10 of concentration (M)

Request: Please look up its pKd: AX210 IgG (antibody, V domains shown, Purified IgG) VH: QVQLLESGGGLVQPGGSLRLSCKASGYTFSSYSIYWVRQAPGKGLEWIGWIDPGNGGTRYNQKFQSKATISRDNSKNTLYLQMNSLRAEDTAVYYCARARVGYSLDYWGQGTLVTVSS VL: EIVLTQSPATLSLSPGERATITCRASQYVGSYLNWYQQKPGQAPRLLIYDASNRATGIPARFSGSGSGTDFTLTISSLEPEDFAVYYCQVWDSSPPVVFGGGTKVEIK
Response: 8.58

Request: Entry AX212 IgG (antibody, V domains shown, Purified IgG) VH: QVQLLESGGGLVQPGGSLRLSCKASGYTFSSYSFSWVRQAPGKGLEWIGYIDPGSGGTKYNQKFQGKATISRDNSKNTLYLQMNSLRAEDTAVYYCARQRVGYSLDYWGQGTLVTVSS VL: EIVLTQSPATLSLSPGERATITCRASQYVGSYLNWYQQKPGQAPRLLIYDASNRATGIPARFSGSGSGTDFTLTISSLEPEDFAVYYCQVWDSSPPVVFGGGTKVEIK please
Response: 8.67

Request: Entry AX137 IgG (antibody, V domains shown, Purified IgG) VH: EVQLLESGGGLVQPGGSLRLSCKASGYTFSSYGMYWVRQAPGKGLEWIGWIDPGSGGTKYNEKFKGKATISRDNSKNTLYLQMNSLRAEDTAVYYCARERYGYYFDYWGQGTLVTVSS VL: EIVLTQSPATLSLSPGERATITCRASQYIGSYLNWYQQKPGQAPRLLIYDASNRATGIPARFSGSGSGTDFTLTISSLEPEDFAVYYCQAWDSSPPVVFGGGTKVEIK please
Response: 8.00
